- Tested Target: human somatostatin receptor subtype 2 (Homo sapiens)
- Test Summary: cAMP assay (inhibition of cAMP activities via sst2 receptor)
- Applied Conditions: CHO cells expressing the human somatostatin receptor subtype 2, forskolin
Observed Property: EC50

Guide cases for EC50, answers given:
- Compound: "CC[C@H](N)CN(C)C(=O)c1c(-c2cc(C)cc(F)c2)cnc2ccc(-c3cc(O)cc(C#N)c3)nc12 [Compound 2-7]"
  EC50: "< 100 nM"
- Compound: "Cc1cc(Cl)cc(-c2cnc3ccc(-c4cc(O)ccc4F)nc3c2C(=O)N(C)C[C@@H]2CCCN2)c1 [Compound 2-3]"
  EC50: "< 100 nM"
- Compound: "CN(C[C@@H]1CCCN1)C(=O)c1c(N2CCCC2)cnc2ccc(-c3cccc(O)c3)nc12 [Compound 3-4]"
  EC50: "< 100 nM"
- Compound: "CN(C[C@@H]1CCCN1)C(=O)c1c(N2CC3CCC(C2)O3)cnc2ccc(-c3cc(F)cc(C#N)c3)nc12 [Compound 3-70]"
  EC50: "100 to 1000 nM"
- Compound: "CN(C[C@@H]1CCCN1)C(=O)c1c(N2CCCCC2)cnc2ccc(-c3cccc(O)c3)nc12 [Compound 3-11]"
  EC50: "100 to 1000 nM"
- Compound: "CN(C[C@@H]1CCCN1)C(=O)c1ccnc2ccc(-c3cccc(O)c3)nc12 [Compound 3-1]"
  EC50: "< 100 nM"
- Compound: "CN(C[C@@H]1CCCN1)C(=O)c1c(N2CC(C)(C)OC(C)(C)C2)cnc2ccc(-c3cc(F)cc(C#N)c3)nc12 [Compound 3-49]"
  EC50: "100 to 1000 nM"
- Compound: "CC[C@H](N)CN(C)C(=O)c1c(-c2cc(C)cc(Cl)c2)cnc2ccc(-c3cc(O)cc(C(N)=O)c3)cc12 [Compound 1-8]"
  EC50: "100 to 1000 nM"
- Compound: "Cc1cc(F)cc(-c2cnc3ccc(N4CCCC(O)C4)nc3c2C(=O)N(C)C[C@@H]2CCCN2)c1 (some centres unmarked) [Compound 3-3]"
  EC50: "100 to 1000 nM"
- Compound: "CC1CN(c2cnc3ccc(-c4cccc(O)c4)nc3c2C(=O)N(C)C[C@@H]2CCCN2)CC(C)O1 (some centres unmarked) [Compound 3-6]"
  EC50: "< 100 nM"

Task: Record request: EC50 value, item CN(C[C@@H]1CCCN1)C(=O)c1c(N2CCC(F)(F)C2)cnc2ccc(-c3cc(F)cc(C#N)c3)nc12 [Compound 3-76]
Output: 100 to 1000 nM

Task: Could you share which EC50 value was measured for CC[C@H](N)CN(C)C(=O)c1c(-c2cc(C)cc(Cl)c2)cnc2ccc(-c3cc(O)cc(C#N)c3)nc12 [Compound 2-6] ?
Output: < 100 nM

Task: Which EC50 is reported for this compound? CN(C[C@@H]1CCCN1)C(=O)c1c(N2CCO[C@H](c3ccccc3)C2)cnc2ccc(-c3cc(F)cc(C#N)c3)nc12 [Compound 3-42]
Output: 100 to 1000 nM

Task: Tell me the measured EC50 of CN(C[C@@H]1CCCN1)C(=O)c1c(C2=CCCC2)cnc2ccc(-c3cc(F)cc(C#N)c3)nc12 [Compound 3-9] , please.
Output: < 100 nM

---

pEC50 overview
- Tested Target: human somatostatin receptor subtype 2 (Homo sapiens, UniProt P30874)
- Sequence (P30874 whole entry): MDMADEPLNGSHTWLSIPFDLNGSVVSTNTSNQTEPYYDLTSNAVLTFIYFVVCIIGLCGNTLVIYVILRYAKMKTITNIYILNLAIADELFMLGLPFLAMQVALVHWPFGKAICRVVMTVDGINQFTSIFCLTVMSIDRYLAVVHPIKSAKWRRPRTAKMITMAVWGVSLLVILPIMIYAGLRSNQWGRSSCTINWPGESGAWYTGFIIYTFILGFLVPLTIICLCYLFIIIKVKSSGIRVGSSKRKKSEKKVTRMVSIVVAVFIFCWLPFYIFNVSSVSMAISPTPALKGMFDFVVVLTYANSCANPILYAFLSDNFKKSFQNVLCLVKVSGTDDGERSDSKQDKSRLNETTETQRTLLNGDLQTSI
- Test Summary: cAMP assay (inhibition of cAMP activities via sst2 receptor)
- Applied Conditions: CHO cells expressing the human somatostatin receptor subtype 2, forskolin
pEC50: −log10 of the molar value.

- Compound: "CN(C[C@@H]1CCCN1)C(=O)c1c(N2CCC(CO)C2)cnc2ccc(-c3cccc(O)c3)nc12 (stereo partly shown) [Compound 3-17]"
  pEC50: "6.00 to 7.00"

Task: Quick check: pEC50 of CN(C)C(=O)c1cccc(-c2cnc3ccc(-c4cccc(O)c4)cc3c2C(=O)N(C)C[C@@H]2CCCN2)c1 [Compound 1-73] ?
Output: 6.00 to 7.00

Task: Look at this compound and give its reported pEC50. CN(C[C@@H]1CCCN1)C(=O)c1c(N2CCc3cc(C(F)(F)F)ccc32)cnc2ccc(-c3cc(F)cc(C#N)c3)nc12 [Compound 3-54]
Output: 6.00 to 7.00

Task: What measured pEC50 goes with COC(=O)Cc1cccc(-c2cnc3ccc(-c4cccc(O)c4)nc3c2C(=O)N(C)C[C@@H]2CCCN2)c1 [Compound 2-21] ?
Output: 6.00 to 7.00

Task: Which pEC50 value is on record for CN(C[C@@H]1CCCN1)C(=O)c1c(N2CCO[C@@H](c3ccccc3)C2)cnc2ccc(-c3cc(F)cc(C#N)c3)nc12 [Compound 3-47] ?
Output: 6.00 to 7.00

Task: I would be grateful if you could share the reported pEC50 for Cc1cc(F)cc(-c2cnc3ccc(N4CCCC4)nc3c2C(=O)N(C)C[C@@H]2CCCN2)c1 [Compound 3-2] .
Output: 6.00 to 7.00

Task: Looking for the measured pEC50 of CN(C[C@@H]1CCCN1)C(=O)c1c(N2Cc3ccc(C(F)(F)F)cc3C2)cnc2ccc(-c3cc(F)cc(C#N)c3)nc12 [Compound 3-55] , can you help?
Output: 6.00 to 7.00

Task: Requested field: pEC50. Item: Cc1cc(F)cc(-c2cnc3ccc(-c4cnn(C)c4)cc3c2C(=O)N(C)C[C@@H]2CCCN2)c1 [Compound 3-10]
Output: 6.00 to 7.00

Task: // query pEC50 value for entry Cc1cc(F)cc(-c2cnc3ccc(-c4cccnc4)cc3c2C(=O)N(C)C[C@@H]2CCCN2)c1 [Compound 3-48]
Output: > 7.00

---

Listed here: items and their measured EC50.
- Tested Target: human somatostatin receptor subtype 2 (Homo sapiens)
- Test Summary: cAMP assay (inhibition of cAMP activities via sst2 receptor)
- Applied Conditions: CHO cells expressing the human somatostatin receptor subtype 2, forskolin

Task: Hi! What's the reported EC50 for CN(C[C@@H]1CCCN1)C(=O)c1c(-c2cccc(-n3cccn3)c2)cnc2ccc(-c3cccc(O)c3)nc12 on human somatostatin receptor subtype 2 (Homo sapiens)?
Output: 100 to 1000 nM

Task: Lab note: need EC50 with human somatostatin receptor subtype 2 (Homo sapiens) for entry CC#Cc1cnc2ccc(-c3cc(F)cc(C#N)c3)nc2c1C(=O)N(C)C[C@@H]1CCCN1 , please look it up.
Output: 100 to 1000 nM

Task: Field: EC50 (human somatostatin receptor subtype 2 (Homo sapiens)). Entry: Cc1cc(F)cc(-c2cnc3ccc(-c4cncc(C#N)c4)cc3c2C(=O)N(C)C[C@@H]2CCCN2)c1
Output: < 100 nM

Task: # get_value(readout= EC50, system= human somatostatin receptor subtype 2 (Homo sapiens)) for CC#Cc1cnc2ccc(-c3cccc(O)c3)nc2c1C(=O)N(C)C[C@@H]1CCCN1
Output: 100 to 1000 nM

Task: Query for human somatostatin receptor subtype 2 (Homo sapiens): what EC50 does the record show for Cc1cc(Cl)cc(-c2cnc3ccc(-c4cccc(O)c4)cc3c2C(=O)N(C)C[C@H]2CCCN2)c1 (single isomer, unassigned) ?
Output: 39 nM

Task: Observed EC50 on human somatostatin receptor subtype 2 (Homo sapiens) for CN(C[C@@H]1CCCN1)C(=O)c1c(-c2cccc(O)c2)cnc2ccc(-c3cccc(O)c3)nc12 , please.
Output: 100 to 1000 nM

Task: Can you look up EC50 on human somatostatin receptor subtype 2 (Homo sapiens) for CN(CC1CCCN1)C(=O)c1c(-c2cccc(CC(=O)O)c2)cnc2ccc(-c3cccc(O)c3)nc12 (stereo not shown) ?
Output: 100 to 1000 nM

---

- Tested Target: human somatostatin receptor subtype 2 (Homo sapiens, UniProt P30874)
- Test Summary: cAMP assay (inhibition of cAMP activities via sst2 receptor)
- Applied Conditions: CHO cells expressing the human somatostatin receptor subtype 2, forskolin
We begin with a simple list: items and their reported EC50.

- Molecule: "CN(C[C@@H]1CCCN1)C(=O)c1c(-c2cccc(C#N)c2)cnc2ccc(-c3cc(F)cc(C#N)c3)nc12"
  EC50: "100 to 1000 nM"

Task: Which EC50 value is on record for CN(C[C@@H]1CCCN1)C(=O)c1c(N2CC3CC3C2)cnc2ccc(-c3cc(F)cc(C#N)c3)nc12 (stereo partly drawn) ?
Output: 100 to 1000 nM

Task: What EC50 value was documented for this molecule, CN(C[C@@H]1CCCN1)C(=O)c1c(-c2cccc(CCC(=O)O)c2)cnc2ccc(-c3cccc(O)c3)nc12 ?
Output: 100 to 1000 nM

Task: Look up EC50: Cc1cc(Cl)cc(-c2cnc3ccc(-c4cc(O)cc(C#N)c4)nc3c2C(=O)N(C)C[C@@H]2CCCN2)c1
Output: 100 to 1000 nM

Task: EC50 for Cc1cc(Cl)cc(-c2cnc3ccc(-c4cccc(O)c4)cc3c2C(=O)N(C)C[C@@H]2CCCN2)c1 ?
Output: 0.12 nM

Task: Could you tell me which EC50 is on file for Cc1cc(Cl)cc(-c2cnc3ccc(-c4cccc(O)c4)nc3c2C(=O)N(C)C[C@@H]2CCCN2)c1 ?
Output: < 100 nM

Task: State the recorded EC50 for this entry: Cc1cccc(-c2cnc3ccc(-c4cccc(O)c4)nc3c2C(=O)N(C)C[C@@H]2CCCN2)n1
Output: 100 to 1000 nM

Task: # lookup: EC50 of CN(C[C@@H]1CCCN1)C(=O)c1c(N2CCOCC2)cnc2ccc(-c3cccc(O)c3)nc12
Output: 100 to 1000 nM

Task: Recorded EC50 for CC[C@H](N)CN(C)C(=O)c1c(-c2cc(C)cc(C)c2)cnc2ccc(-c3cc(O)cc(C#N)c3)nc12 , please?
Output: < 100 nM
